Each recorded value in this set is attributed to paper PMC7450057.

assay: Permeability by lipid-PAMPA method (Pharmaron); format: in vitro ADME; settings: PAMPA, Mean; read-out: Recovery%
Reported Endpoint: recovery at 16 h, 10 μM (%)
Supply the numeric figure in %, leaving out any unit text.

I am curious: what recovery at 16 h, 10 μM value has been reported for C[C@]12CC[C@H]3[C@@H](CCC4=CC(=O)CC[C@@]43C)[C@@H]1CC[C@@H]2O [Testosterone, testosterone, reference compound] ?
91.1

* * *

Known IC50 of a selection of molecules
tested on: Mino; experiment: IC50 in MCL cell lines (Supplementary Table 2), Mino; conditions: Mino; triplicates

Solved cases (2 shown):
• C=CC(=O)N1CCC[C@@H](n2nc(-c3ccc(Oc4ccccc4)cc3)c3c(N)ncnc32)C1 [IRC-Ctrl, ibrutinib, reference compound] = 3.8 µM
• CN(CCCNC(=O)CNc1cccc2c1C(=O)N(C1CCC(=O)NC1=O)C2=O)C(C)(C)C=C(C#N)C(=O)N1CCC[C@@H](n2nc(-c3ccc(Oc4ccccc4)cc3)c3c(N)ncnc32)C1 (stereo partly shown) = 0.4 µM

I am curious: what IC50 value has been reported for CC(C)(C)C=C(C#N)C(=O)N1CCCC(n2nc(-c3ccc(Oc4ccccc4)cc3)c3c(N)ncnc32)C1 (stereo not shown) ?
> 5 µM

I am curious: what IC50 value has been reported for CN1C(=O)CCC(N2C(=O)c3cccc(NCC(=O)NCCCN(C)C(C)(C)C=C(C#N)C(=O)N4CCCC(n5nc(-c6ccc(Oc7ccccc7)cc6)c6c(N)ncnc65)C4)c3C2=O)C1=O (stereo not shown) ?
3.3 µM
